Test system: SF-539 CNS
procedure.details: NCI-60 one-dose screen, 48 h (100 = growth as untreated, 0 = no growth, -100 = all killed)
condition.parameters: 10 µM unless noted
The panel holds about 83,000 compounds, 20% with a hit somewhere; the sample as a whole holds those more often.
Please provide measured growth for the entries that follow.
Please give a number only; it is taken to be in %.

Task item: Supply growth value. Item: C=CCn1c(SCC(=O)NCc2cc(C)c(O)c(C)c2)nc2ccc(Cl)cc2c1=O
Reply: 101

Task item: Supply growth value. Item: C/C(Nc1ccc(Cl)c(Cl)c1)=C1\CCOC1=O
Reply: 98.5

Task item: Supply growth value. Item: Cc1cnc(C(=O)NNc2nc3sc4c(c3c(=O)n2C)C(C)CCC4)cn1 (centres undefined)
Reply: -21.1

Task item: Supply growth value. Item: CC(C)N1CN2C(=S)NC3C2N(C1)C(=S)N3C (centres undefined)
Reply: 109

Task item: Supply growth value. Item: O=C1c2cccnc2C(=O)c2c1c(C(=O)NCCCN1CCCCC1)c1ccccn21
Reply: -61.2

Task item: Supply growth value. Item: COc1ccc(C(=O)Nc2cccc(C3CC(=O)c4c(cc(OC)c(OC)c4OC)O3)c2)cc1 (centres undefined)
Reply: -29.7

Task item: Supply growth value. Item: O=C(Nc1cccnc1Nc1ccc(F)cc1)c1cn(Cc2cccc(Oc3ccccc3)c2)nn1
Reply: 63.7

Task item: Supply growth value. Item: CCOC(=O)c1cn2ncnc(Oc3ccc(NC(=O)NC4CCCCC4)c(Cl)c3)c2c1C
Reply: 51.2

Task item: Supply growth value. Item: O=C(N/N=C/c1ccc(F)cc1)c1ccc(C(F)(F)F)nc1Nc1cccc(C(F)(F)F)c1
Reply: -0.388

Task item: Supply growth value. Item: O=C(NCc1ccccc1)Nc1ccccc1CNc1nc(Nc2ccc(OCCN3CCCC3)cc2)ncc1Cl
Reply: 92.4

Task item: Supply growth value. Item: C=C1C(=O)O[C@H]2[C@H]1CC/C(COC(=O)NCc1ccc(Cn3c(=O)sn(CCI)c3=O)cc1)=C\CC[C@@]1(C)O[C@@H]21
Reply: 78.8

Task item: Supply growth value. Item: CN1CCN(c2ccc(C(=O)Nc3cccc(C#Cc4cccc5[nH]nc(N)c45)c3)cc2C(F)(F)F)CC1
Reply: -82.7

Task item: Supply growth value. Item: CCN1C(=O)N(CC)C2C1NN=c1s/c(=C\c3ccc(Cl)cc3Cl)c(=O)n12 (centres undefined)
Reply: -12.6

Task item: Supply growth value. Item: COc1cc(-n2cc(-c3cc(O)c(C/C=C(\C)CCC=C(C)C)c(O)c3)nn2)cc2c1O[C@]1(C)CC[C@@H](O)C(C)(C)[C@H]1C2
Reply: -40.4

Task item: Supply growth value. Item: Cc1ccc(/C=N/Nc2nc(Nc3ccccc3)nc(-n3nc(C)cc3C)n2)cc1
Reply: 56.5

Task item: Supply growth value. Item: Cc1ccc(-c2cc(-c3ccc(Cl)cc3)nc(NC(=O)c3cccnc3)n2)cc1
Reply: 106

Task item: Supply growth value. Item: CC/C(=C(/c1ccc(Cl)cc1)c1ccc(OCCN2CCCC2)cc1)c1ccc(OC)cc1
Reply: 82.6

Task item: Supply growth value. Item: CCOC(=O)c1cc2c(=O)oc3ccccc3c2oc1=O
Reply: 100

Task item: Supply growth value. Item: Fc1ccc2[nH]cc(-c3nonc3-c3c[nH]c4ccc(Br)cc34)c2c1
Reply: 16.7
